- TARGET: Phospho-N-acetylmuramoyl-pentapeptide-transferase (Bacillus subtilis (strain 168), UniProt Q03521)
- Sequence (Q03521 whole entry): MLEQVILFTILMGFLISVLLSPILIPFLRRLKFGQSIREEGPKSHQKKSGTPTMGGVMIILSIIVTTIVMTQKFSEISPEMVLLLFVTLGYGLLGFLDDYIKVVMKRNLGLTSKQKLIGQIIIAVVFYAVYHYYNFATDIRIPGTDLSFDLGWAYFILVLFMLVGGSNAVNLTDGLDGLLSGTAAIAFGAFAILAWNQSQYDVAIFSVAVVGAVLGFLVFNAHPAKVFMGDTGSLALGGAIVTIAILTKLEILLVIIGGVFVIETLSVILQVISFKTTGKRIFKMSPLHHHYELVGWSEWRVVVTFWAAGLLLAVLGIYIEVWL
- EXPERIMENTAL PROTOCOL: Inhibition of Bacillus subtilis MraY after 30 mins using UDP-MurNAc-pentapeptide as substrate
Exam item: assign yes (1) to entries whose IC50 is below 500 µM and no (0) to entries at or above 500 µM. Note that a value of exactly 500 µM receives no (0).

MOLECULAR STRING | ASSIGNED LABEL
CCCCCCCCCCCCCCCC(=O)N1[C@H](C(=O)OC)[C@@H]([C@H]2O[C@@H](n3ccc(=O)[nH]c3=O)[C@H](O)[C@@H]2O)O[C@@H]1CCN.Cl | no (0)
CCCCCCCCCCCCCCCC(=O)N1[C@H](C(=O)OC)[C@@H]([C@H]2O[C@@H](n3ccc(=O)[nH]c3=O)[C@H](O)[C@@H]2O)O[C@@H]1CN.Cl | no (0)
CCCCCCCCCCCCCCCC(=O)N1[C@H](C(=O)OC)[C@@H]([C@H]2O[C@@H](n3ccc(=O)[nH]c3=O)[C@H](O)[C@@H]2O)O[C@@H]1CCCN.Cl | no (0)
CCCCCCCCCCCCCCCC(=O)N1[C@H](C(=O)O)[C@@H]([C@H]2O[C@@H](n3ccc(=O)[nH]c3=O)[C@H](O)[C@@H]2O)O[C@@H]1CCN | yes (1)
CCCCCCCCc1ccc(NC(=O)[C@@H](N)[C@H](O[C@@H]2O[C@H](CN)[C@@H](O)[C@H]2O)[C@H]2O[C@@H](n3ccc(=O)[nH]c3=O)[C@H](O)[C@@H]2O)cc1.O=C(O)C(F)(F)F | yes (1)
